Attribution: PubChem BioAssay

- TESTED ON: Torsin-1A-interacting protein 2 (Homo sapiens)
- EXPERIMENTAL DETAILS: LULL1 binders on small-molecule microarray, primary screen, cell lysate, human LULL1 lysate, 635/667 nm fluorescence (AID 1092);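 also: probe is lysate of COS7 cells overexpressing human LULL1; score merges per-feature 667 nm fluorescence with signal-to-noise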
- EXPERIMENTAL CONTEXT: hLULL1 lysate binding, 635 nm fluorescence, higher = more signal
Known composite z-score of a selection of molecules
MEASURED QUANTITY: composite z-score

COC(=O)[C@@]1(Cc2ccc(OC)cc2)[C@H]2c3cc(C(=O)N4CCCC4)n(Cc4ccc(OC(F)(F)F)cc4)c3C[C@H]2CN1C(=O)c1ccccc1; 0.0202
NC(=O)[C@H]1[C@@H]2C(=O)O[C@@H](c3ccccc3)[C@@H](c3ccccc3)N2[C@@H](c2ccc(O)cc2)[C@]12C(=O)Nc1ccc(C#CC3=CCCCC3)cc12; 2.83
O=C1[C@@H]2[C@@H](CC(COc3ccccc3)=C3[C@@H](CCc4ccccc4)OB(O)C[C@@H]32)C(=O)N1Cc1ccccc1; 0.828
C=CCNC(=O)[C@H]1[C@@H]2C(=O)O[C@@H](c3ccccc3)[C@@H](c3ccccc3)N2[C@@H](c2ccc(OCCO)cc2)[C@]12C(=O)Nc1ccc(C#CCNC(N)=O)cc12; 1.98
C=CCC(OC(C)=O)[C@@H]1[C@@H](N(Cc2cccc3ccccc23)C(=O)c2ccc(-c3ccccc3)cc2)c2cc(OCCCO)ccc2N1C(=O)c1ccc(-c2ccccc2)cc1 (stereo partly specified); 0.549
CN1C(=O)[C@@]2(Cc3ccccc3)N=C(c3ccc(OCCCO)cc3)O[C@H]2c2ccccc21; 2.94

* * *

- Tested on: Plasmodium falciparum Sir2 (PF13_0152, Sir2A)
- EXPERIMENTAL DETAILS: pfSir2 binders on small-molecule microarrays, primary screen, biochemical, small-molecule microarray, 635 nm fluorescence (AID 1098);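 also: score merges spot fluorescence intensity with its signal-to-noise ratio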
- EXPERIMENTAL CONTEXT: small-molecule microarray binding, fluorescence 635 nm; higher = more signal
MEASURED QUANTITY: composite z-score

COC(=O)C(CC#Cc1ccc2c(c1)[C@]1(C(=O)N2)[C@H](c2ccc(OCCO)cc2)N2[C@H](c3ccccc3)[C@H](c3ccccc3)OC(=O)[C@H]2[C@@H]1C(=O)N1CCN(c2ncccn2)CC1)C(=O)OC; 1.35
CCOC(=O)C1=CCN(S(=O)(=O)c2ccc(C)cc2)C1c1ccccc1 (configuration not stated); 0.494
COc1ccc([Si](C)(C)[C@H]2[C@H](CCO)O[C@@]3(C(=O)N(Cc4ccc(N5C(=O)c6ccccc6Oc6ccccc65)cc4)c4ccccc43)[C@@H]2C)cc1; 0.094
CN1C(=O)C2C=CC(C(O)c3ccc(F)cc3)N(NC(=O)OC(C)(C)C)C2C1=O (configuration not stated); 0.578
COCCOC(=O)N1C(=O)[C@@]2(c3cc(C#CC4=CCCCC4)ccc31)[C@H](C(=O)N1CCCCCCC1)[C@H]1C(=O)O[C@H](c3ccccc3)[C@H](c3ccccc3)N1[C@@H]2c1ccc(OCCO)cc1; 1.23
CO[C@H]1O[C@H](CO)[C@@H](OC(=O)Nc2cccc(F)c2)[C@H](OC(=O)Nc2ccccc2-c2ccccc2)[C@H]1OC(=O)Nc1ccccc1-c1ccccc1; 1.26
COCCOC(=O)N1C(=O)[C@@]2(c3ccccc31)[C@H](c1ccc(OCCO)cc1)N1[C@H](c3ccccc3)[C@H](c3ccccc3)OC(=O)[C@H]1[C@@H]2C(=O)N1CCCCCCC1; 2.35
O=C1O[C@H](c2ccccc2)[C@H](c2ccccc2)N2[C@H]1[C@@H](C(=O)N1CCCCCCC1)[C@]1(C(=O)Nc3ccc(C#CC4(O)CCCCCC4)cc31)[C@H]2c1ccccc1OCCO; 2.09
C=CCNC(=O)[C@@H]1[C@H]2C(=O)O[C@H](c3ccccc3)[C@H](c3ccccc3)N2[C@H](c2ccc(O)cc2)[C@@]12C(=O)N(C(=O)OCCOC)c1ccc(C#CCCO)cc12; 1.25
O=C1C[C@@](C(=O)NCc2ccccc2)(c2ccc([N+](=O)[O-])cc2)[C@@H](c2ccc(CO)cc2I)N1CC12CC3CC(CC(C3)C1)C2; 1.05
C#C[C@@H](CC)O[Si](C#CCCCC#N)(C(C)C)C(C)C; 0.329
NC(=O)NCC#Cc1ccc2c(c1)[C@]1(C(=O)N2)[C@H](C(=O)N2CCN(c3ncccn3)CC2)[C@H]2C(=O)O[C@H](c3ccccc3)[C@H](c3ccccc3)N2[C@@H]1c1ccc(OCCO)cc1; 0.695
